# tested_target: human CTPS1 (Homo sapiens)
# Construct: FLAG (with GG linker); His8 (with GG linker); purchased Proteros biostructures GmbH
# Sequence (P17812 whole entry): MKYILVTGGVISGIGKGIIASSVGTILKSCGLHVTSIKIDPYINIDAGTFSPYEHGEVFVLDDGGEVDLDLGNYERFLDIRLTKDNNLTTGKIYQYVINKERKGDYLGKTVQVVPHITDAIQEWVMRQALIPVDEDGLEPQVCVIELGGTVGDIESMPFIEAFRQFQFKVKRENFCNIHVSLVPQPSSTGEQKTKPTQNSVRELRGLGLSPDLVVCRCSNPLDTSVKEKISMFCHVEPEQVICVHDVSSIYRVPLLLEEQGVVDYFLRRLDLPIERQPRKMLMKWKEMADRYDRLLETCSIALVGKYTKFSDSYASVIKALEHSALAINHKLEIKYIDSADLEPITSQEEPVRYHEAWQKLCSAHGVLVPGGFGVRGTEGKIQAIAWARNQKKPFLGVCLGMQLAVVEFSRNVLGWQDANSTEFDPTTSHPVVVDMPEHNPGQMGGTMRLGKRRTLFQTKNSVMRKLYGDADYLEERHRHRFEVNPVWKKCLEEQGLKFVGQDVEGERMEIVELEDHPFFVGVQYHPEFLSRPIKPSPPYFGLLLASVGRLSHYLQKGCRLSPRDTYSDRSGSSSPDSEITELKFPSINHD
# assay: Human CTPS1 enzyme inhibition, ADP-Glo Max assay
# Format: biochemical
# particulars: ADP-Glo Max assay; Table 10; read-out: Human CTPS1 Enzyme Inhibition, IC50 grouped by potency range (CTPS1)
pIC50: −log10 of the molar value.
Entries and their measured pIC50 follow.

Would you please look over these solved cases?
CC(C)(C(=O)Nc1ccc(-c2ccccc2)cn1)c1csc(NS(=O)(=O)C2CC2)n1    6.00 to 7.00
COc1cc(F)cc(-c2ccc(NC(=O)C(C)(C)c3csc(NS(=O)(=O)C4CC4)n3)nc2)c1    5.00 to 6.00
CC(C)(C(=O)Nc1ccc(-c2cccnc2)cc1)c1csc(NS(C)(=O)=O)n1    6.00 to 7.00
CCOc1cncc(-c2ccc(NC(=O)C(C)(C)c3csc(NS(=O)(=O)C(F)(F)F)n3)cc2)n1    6.00 to 7.00
O=C(Cc1csc(NS(=O)(=O)C2CC2)n1)Nc1ccc(-c2cncnc2)cn1    6.00 to 7.00
COc1cc(-c2cncc(Cl)c2)ccc1NC(=O)C(C)(C)c1csc(NS(=O)(=O)C2CC2)n1    > 7.00

Q) # get_value(readout='pIC50', item= CC(C)(C(=O)Nc1ccc(-c2cncc(C(F)(F)F)n2)cc1F)c1csc(NS(=O)(=O)CC2CC2)n1 )
A) 6.00 to 7.00

Q) // repeat for Cc1cc(NC(=O)C(C)(C)c2csc(NS(=O)(=O)C3CC3)n2)ccc1-c1cncc(C#N)c1 and report
A) 6.00 to 7.00

Q) // repeat for CC(C)(C(=O)Nc1ccc(-c2cnccn2)cc1)c1csc(NS(=O)(=O)C2CC2)n1 and report
A) > 7.00

Q) // repeat for CC(C)(C(=O)Nc1ncc(-c2cncc(Cl)c2)cc1F)c1csc(NS(=O)(=O)C2CC2)n1 and report
A) > 7.00

Q) // repeat for COc1cncc(-c2ccc(NC(=O)C(C)(C)c3csc(NS(=O)(=O)C4CC4)n3)c(F)c2)c1 and report
A) > 7.00

Q) // repeat for CC(C)(C(=O)Nc1ncc(-c2cncc(C(F)(F)F)n2)cc1F)c1csc(NS(=O)(=O)C2CC2)n1 and report
A) > 7.00

Q) // repeat for CC(=O)Nc1cncc(-c2ccc(NC(=O)C(C)(C)c3csc(NS(=O)(=O)C4CC4)n3)cc2)n1 and report
A) 6.00 to 7.00

Q) // repeat for CC(C)(C(=O)Nc1ncc(-c2cncc(F)c2)cn1)c1csc(NS(=O)(=O)C2CC2)n1 and report
A) 6.00 to 7.00

Q) // repeat for CCCOc1cncc(-c2ccc(NC(=O)C(C)(C)c3csc(NS(=O)(=O)C4CC4)n3)nc2)n1 and report
A) > 7.00

Q) // repeat for CCOc1cncc(-c2cnc(NC(=O)C(C)(C)c3csc(NS(=O)(=O)C4CC4)n3)c(F)c2)n1 and report
A) > 7.00

Q) // repeat for CCC(CC)(C(=O)Nc1ccc(-c2cccnc2)cn1)c1csc(NS(=O)(=O)C2CC2)n1 and report
A) 6.00 to 7.00

Values compiled from patent US20230086703A1.
